Tested on: RXF 393 renal
Test: NCI tumour cell line growth inhibition, 48 h
endpoint label: GI50

Guide cases for GI50, answers given:
compound	GI50
CC(=O)OC1Oc2cc(C)c(C)cc2-c2oc(=O)c(-c3ccc(F)cc3)cc21 (configuration not stated)	2950 nM
CCC[CH2][Sn]1([CH2]CCC)[O]CC(CN2CCOCC2)[O]1 (configuration not stated)	1650 nM
O=S(=O)(CCNCc1ccc(-c2ccc3ncnc(Nc4ccc(OCc5cccc(F)c5)c(Cl)c4)c3c2)o1)c1ccccc1	> 25000 nM
Cc1ccc(NC2=C(Cl)C(=O)N(Cc3ccccc3)C2=O)cc1Cl	2330 nM
COc1cc(C2CC(c3ccccc3)=NN2C(C)=O)cc(OC)c1OC (configuration not stated)	4140 nM
O=C1CC[C@H](c2ccc(O)c3c2C(=O)[C@@H]2O[C@@H]2C3=O)c2cccc(O)c21	1730 nM

Consider the additional compound presented here.
Param readout = GI50; param system = RXF 393 renal; param query = COc1ccc(OC)c(/C=C2\COc3ccc(O)c(O)c3C2=O)c1 ; response: value
1830 nM

---

Test system: MOLT-4 leukemia
Assay: NCI tumour cell line growth inhibition, 48 h
endpoint label: TGI

molecule	endpoint label	result
NC(=O)CCC(CCC(N)=O)(CCC(N)=O)[N+](=O)[O-]	TGI	> 100 µM

// returns reported TGI for input CCCc1nc(NC#N)nc(C(=O)NC23CC4CC(CC(C4)C2)C3)c1C
> 100 µM

Which measured TGI value corresponds to CC1=NC(C(C)C)C(=O)O1 (centres undefined) ?
> 100 µM

May I ask what TGI has been recorded for CCC1c2[nH]c3ccccc3c2C[C@H]2C(=O)N3CCC[C@H]3C(=O)N12 (some centres undefined) ?
> 100 µM

Item COc1ccc2oc(=O)c(-c3nc4ccccc4o3)cc2c1 has what recorded TGI?
> 100 µM

I have this molecule here, C/C=N\n1c(C)c(C#N)c(C#N)c1N , and I need its recorded TGI.
> 100 µM

Looking for the measured TGI of CC1OC(OC2C(CO)OC(O[C@H]3CC[C@@]4(C)C(=CC[C@H]5[C@@H]6C[C@@H]7O[C@](O)(CC[C@H](CO)COC8OC(CO)C(O)C(O)C8O)[C@@H](C)[C@@H]7[C@@]6(C)CC[C@@H]54)C3)C(OC3OC(C)C(O)C(O)C3O)C2O)C(O)C(O)C1O (some centres undefined) , can you help?
> 100 µM

Tell me the measured TGI of O=C(Nc1cccc([N+](=O)[O-])c1)C(=O)C(C(=O)c1ccccc1F)C1OC(=O)C2C=CC=CC21 (centres undefined) , please.
> 100 µM

Requested read-out: TGI. Entry: COC(=O)C1(Cc2cccc(C)c2)Cc2c(C)cccc2C1=O (centres undefined)
> 100 µM

---

Test system: SNB-19 CNS
Assay: NCI tumour cell line growth inhibition, 48 h
Entries and their GI50

compound	system	GI50
COc1ccc2cc(Cn3cc[n+](Cc4ccc5ccccc5c4)c3)ccc2c1	SNB-19 CNS	1.93 µM
CS(=O)(=O)c1ccc(Oc2cc(F)cc(C#N)c2)c2c1[C@H](O)C(F)(F)C2	SNB-19 CNS	> 100 µM
O=C(NC1CCCCC1)NS(=O)(=O)c1ccc(-n2nc3c(c2-c2ccc(Cl)cc2)Cc2ccccc2-3)cc1	SNB-19 CNS	43.7 µM
CC(=O)OC1Oc2cc(C)c(C)cc2-c2oc(=O)c(-c3ccc(F)cc3)cc21 (centres undefined)	SNB-19 CNS	11.6 µM
O=C1CCC(N2Cc3c(C#CCCCNC(=O)c4cc5c(o4)C(=O)c4ccccc4C5=O)cccc3C2=O)C(=O)N1 (centres undefined)	SNB-19 CNS	2.65 µM

Recall the recorded GI50 for CCC[CH2][Sn]1([CH2]CCC)[O]CC(CN2CCOCC2)[O]1 (centres undefined) with SNB-19 CNS and state it.
7.65 µM

Request body: readout GI50, system SNB-19 CNS, query O=C(Nc1ccc(OCc2nnc(-c3ccccc3)o2)c(F)c1)Nc1ccc(Cl)c(C(F)(F)F)c1 . Return the value.
2.35 µM

Request body: readout GI50, system SNB-19 CNS, query COc1cc(NC(=O)CSc2nc3ccccc3c(=O)n2CCc2ccccc2)cc(OC)c1OC . Return the value.
3.49 µM

SNB-19 CNS / GI50 / COc1ccc2c(c1)/C(=C\c1c(Cl)n(C)c3ccccc13)C(=O)N2 : value?
1.85 µM

---

// values below are reported GI50
System: SK-MEL-28 melanoma
Experiment: NCI tumour cell line growth inhibition, 48 h

Please review the entries below; each comes with its answer.
compound	GI50
N#Cc1c(N)nc(NCc2ccccc2)c(C#N)c1-c1ccccc1Cl	49.5 µM
Nc1ccc(-c2nc3ccccc3o2)cc1S	24.9 µM
CCOC(=O)c1c(Cl)c2c(n1Cc1cccc(OC)c1)-c1oncc1CC2	4.89 µM
COc1ccc2cc(Cn3cc[n+](Cc4ccc5ccccc5c4)c3)ccc2c1	2 µM
O=C(Cc1ccccc1)NC(c1ccc(Cl)cc1)c1c(O)ccc2ccccc12 (configuration not stated)	3.16 µM

Please provide the recorded GI50 for O=S(=O)(CCNCc1ccc(-c2ccc3ncnc(Nc4ccc(OCc5cccc(F)c5)c(Cl)c4)c3c2)o1)c1ccccc1 , tested on SK-MEL-28 melanoma.
> 25 µM

SK-MEL-28 melanoma / GI50 / CCC[CH2][Sn]1([CH2]CCC)[O]CC(CN2CCOCC2)[O]1 (configuration not stated) : value?
2.89 µM

---

System: KM12 colon
Assay: NCI tumour cell line growth inhibition, 48 h
Entries and their measured TGI follow.

Would you please look over these solved cases?
compound	system	TGI
CCOC(=O)C(=O)Nc1c(CC)cccc1C(C)CC (configuration not stated)	KM12 colon	> 100 µM
O=C1NC(c2c(Cl)cccc2Cl)Nc2ccccc21 (configuration not stated)	KM12 colon	43.7 µM

Give its TGI value. Item: CC1OC(OC2C(CO)OC(O[C@H]3CC[C@@]4(C)C(=CC[C@H]5[C@@H]6C[C@@H]7O[C@](O)(CC[C@H](CO)COC8OC(CO)C(O)C(O)C8O)[C@@H](C)[C@@H]7[C@@]6(C)CC[C@@H]54)C3)C(OC3OC(C)C(O)C(O)C3O)C2O)C(O)C(O)C1O (some centres not stated)
> 100 µM

Query: TGI; subject: COc1ccc(-c2nn(-c3cccc(NC(=O)c4cccc(C(F)(F)F)c4)c3)cc2-c2ccncc2)cc1Cl
9.7 µM

Consider the compound shown here: O=C1CC[C@H](c2ccc(O)c3c2C(=O)[C@@H]2O[C@@H]2C3=O)c2cccc(O)c21 What is its recorded TGI?
12.9 µM

Returns the measured TGI for the input compound. Input: Cc1ccc(C(=O)C#Cc2c[nH]c(=O)[nH]c2=O)cc1
28.2 µM

What TGI value was documented for this compound, N#Cc1cc(N(CCCl)CCCl)c([N+](=O)[O-])cc1[N+](=O)[O-] ?
> 100 µM

# input compound: CC1=CC(=O)C(=CN2C(=O)/C(=C\c3cccnc3)NC2=S)C(=O)O1 ; wanted: its TGI
> 100 µM

Item under review: CC1=NC(C(C)C)C(=O)O1 (configuration not stated) . Reported TGI?
> 100 µM

Which TGI is listed for C=CC[C@@H]1/C=C(\C)C[C@H](C)C[C@H](OC)[C@H]2O[C@@](O)(C(=O)C(=O)N3CCCC[C@H]3C(=O)O[C@H](/C(C)=C/C3CC[C@@H](O)[C@H](OC)C3)[C@H](C)[C@@H](O)CC1=O)[C@H](C)C[C@@H]2OC (some centres not stated) ?
28.7 µM

Which measured TGI value corresponds to O=C(Nc1sccc1S(=O)(=O)c1ccc(Cl)cc1)c1ccccc1 ?
> 100 µM

For the compound Nc1ccc(-c2nc3ccccc3o2)cc1S , what TGI is on record?
35.2 µM

# query: TGI of entry CC(C)[Si](OC1=C(C(=O)N(C)c2ccccc2Cl)CCCCC1)(C(C)C)C(C)C
> 100 µM

Sample Clc1ccc(C2=C(c3ccccc3)C(c3ccc(Cl)cc3)N3C(=N[C@H]4CCCC[C@@H]43)N2)cc1 (some centres not stated) — what was its TGI?
23.5 µM

---

Test system: IGROV1 ovarian
Assay: NCI tumour cell line growth inhibition, 48 h
endpoint label: TGI

compound	TGI
CCOC(=O)C(C(=O)OCC)=C1N[C@H](C(=O)OCC)CS1	> 100 µM

What measured TGI is associated with CCOC(=O)c1c(-c2ccccc2)nc2c(OC)nccn12 on IGROV1 ovarian?
> 100 µM

Lab note: need TGI with IGROV1 ovarian for entry COC1OC(COS(=O)(=O)c2ccc(C)cc2)C(O)C(OS(=O)(=O)c2ccc(C)cc2)C1OS(=O)(=O)c1ccc(C)cc1 (stereo not given) , please look it up.
> 100 µM

For IGROV1 ovarian, provide TGI of CC1=CC(=O)c2c(C=O)c(O)c(O)c(C(C)C)c2C1=O please.
63.9 µM

Reported TGI for IGROV1 ovarian, given CSC1=Nc2c(c(C)c(C)n2COC(CO)CO)C2=NC(=O)CC(C)N12 (stereo not given) ?
> 100 µM

Cited source for all entries: PubChem BioAssay (NCI)
